I'd be grateful if you could share measured DC50 for these entries.
# experimental_target: Androgen Receptor (AR) (Homo sapiens, UniProt P10275)
# Construct: endogenous in cells; host or cells: VCaP
# Sequence (P10275 1-920): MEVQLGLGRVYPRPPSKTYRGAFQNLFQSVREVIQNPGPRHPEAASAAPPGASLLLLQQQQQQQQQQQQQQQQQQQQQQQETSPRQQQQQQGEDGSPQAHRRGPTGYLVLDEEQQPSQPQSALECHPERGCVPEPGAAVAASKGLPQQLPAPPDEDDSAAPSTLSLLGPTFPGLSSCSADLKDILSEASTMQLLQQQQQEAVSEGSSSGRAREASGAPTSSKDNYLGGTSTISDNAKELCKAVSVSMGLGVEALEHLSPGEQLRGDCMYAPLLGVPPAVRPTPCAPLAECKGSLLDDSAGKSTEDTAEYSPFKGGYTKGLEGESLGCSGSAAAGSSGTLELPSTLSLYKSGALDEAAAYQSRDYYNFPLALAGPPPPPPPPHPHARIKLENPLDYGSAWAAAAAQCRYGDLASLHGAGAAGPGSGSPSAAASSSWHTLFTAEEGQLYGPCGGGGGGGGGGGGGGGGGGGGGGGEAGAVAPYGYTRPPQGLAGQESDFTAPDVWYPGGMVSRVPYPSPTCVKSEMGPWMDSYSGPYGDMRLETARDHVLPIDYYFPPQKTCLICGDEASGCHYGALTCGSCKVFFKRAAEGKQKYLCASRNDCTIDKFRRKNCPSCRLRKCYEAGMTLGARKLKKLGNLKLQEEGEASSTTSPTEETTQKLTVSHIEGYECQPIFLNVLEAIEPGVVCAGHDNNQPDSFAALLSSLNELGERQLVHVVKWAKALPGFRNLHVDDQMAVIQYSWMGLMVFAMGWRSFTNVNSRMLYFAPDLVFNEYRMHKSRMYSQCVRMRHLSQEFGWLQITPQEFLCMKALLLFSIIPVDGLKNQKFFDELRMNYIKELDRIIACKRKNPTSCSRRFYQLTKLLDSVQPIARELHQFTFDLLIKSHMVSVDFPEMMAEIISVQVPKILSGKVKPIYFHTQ
# assay_comment: AR immunofluorescence staining, high content imager, VCaP cells
# Assay type: cell-based
# recorded_conditions: AR degradation by immunofluorescence

Field: example entries. Status: answers known.
compound	experimental_result
COc1cc(O[C@H]2C(C)(C)[C@H](NC(=O)c3ccc(N4CCO[C@@H](CN(C(C)C)[C@H]5C[C@H](Oc6ccc(C(=O)N[C@H]7CCC(=O)NC7=O)c(F)c6)C5)C4)cc3)C2(C)C)ccc1C#N	< 1 nM
CC1(C)[C@H](NC(=O)c2cnc(N3CCC(CN4CCN(c5ccc(C(=O)NC6CCC(=O)NC6=O)c(F)c5)CC4)CC3)cn2)C(C)(C)[C@H]1Oc1ccc(C#N)c(Cl)c1 (stereo partly drawn)	1 to 10 nM

Give the measured DC50 of Cc1cc(O[C@H]2C(C)(C)[C@H](NC(=O)c3ccc(N4CCC(CN5CCOCCCCCOc6ccc(C(=O)NC7CCC(=O)NC7=O)cc6O[C@H]6C[C@H]5C6)CC4)cc3)C2(C)C)cc(C)c1C#N (stereo partly drawn) .
1 to 10 nM
